# assay protocol: chemical genetic growth profiling, strain panel (AID 1159580);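 also: tested at 20 µM; growth read once vehicle control cultures reached saturation at 30 °C; 1 = growth at the plate median or of vehicle wells; lower values mean less growth of the strain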
# measurement setup: S. cerevisiae deletion strains, growth OD, locus YPL240C, strain hsp82, stronger effect = lower value
In all, about 5,500 compounds went through this assay and about 2,000 (36%) were called active. About 18% were inconclusive and are not listed. The list shows a part of the results.
attribute measured: normalized growth
# respond with the number and nothing more

State its normalized growth: CC(=O)O[C@H]1C[C@@H](OC(C)=O)C(C)(C)C2CC(=O)[C@]3(C)C(CC[C@@]4(C)[C@H](c5ccoc5)OC(=O)[C@H]5O[C@]543)[C@]21C (some centres undefined)
0.995

Fill in normalized growth for record N[C@H](Cc1ccccc1)C(=O)O
0.994

Supply recorded normalized growth for CC12CC3CC(C)(C1)CC(N)(C3)C2 here.
0.998

Tell us which normalized growth value is on record for COC(=O)CCC(C)[C@H]1CCC2C3C(C[C@H](O)[C@@]21C)[C@@]1(C)CC[C@@H](O)C[C@H]1C[C@H]3O (some centres undefined)
1

Sourced from PubChem BioAssay AID1159580
